All figures here come from ChEMBL document CHEMBL5705885.

- EXPERIMENTAL_TARGET: Muscle, skeletal receptor tyrosine-protein kinase (Homo sapiens)
- Sequence (O15146 whole entry): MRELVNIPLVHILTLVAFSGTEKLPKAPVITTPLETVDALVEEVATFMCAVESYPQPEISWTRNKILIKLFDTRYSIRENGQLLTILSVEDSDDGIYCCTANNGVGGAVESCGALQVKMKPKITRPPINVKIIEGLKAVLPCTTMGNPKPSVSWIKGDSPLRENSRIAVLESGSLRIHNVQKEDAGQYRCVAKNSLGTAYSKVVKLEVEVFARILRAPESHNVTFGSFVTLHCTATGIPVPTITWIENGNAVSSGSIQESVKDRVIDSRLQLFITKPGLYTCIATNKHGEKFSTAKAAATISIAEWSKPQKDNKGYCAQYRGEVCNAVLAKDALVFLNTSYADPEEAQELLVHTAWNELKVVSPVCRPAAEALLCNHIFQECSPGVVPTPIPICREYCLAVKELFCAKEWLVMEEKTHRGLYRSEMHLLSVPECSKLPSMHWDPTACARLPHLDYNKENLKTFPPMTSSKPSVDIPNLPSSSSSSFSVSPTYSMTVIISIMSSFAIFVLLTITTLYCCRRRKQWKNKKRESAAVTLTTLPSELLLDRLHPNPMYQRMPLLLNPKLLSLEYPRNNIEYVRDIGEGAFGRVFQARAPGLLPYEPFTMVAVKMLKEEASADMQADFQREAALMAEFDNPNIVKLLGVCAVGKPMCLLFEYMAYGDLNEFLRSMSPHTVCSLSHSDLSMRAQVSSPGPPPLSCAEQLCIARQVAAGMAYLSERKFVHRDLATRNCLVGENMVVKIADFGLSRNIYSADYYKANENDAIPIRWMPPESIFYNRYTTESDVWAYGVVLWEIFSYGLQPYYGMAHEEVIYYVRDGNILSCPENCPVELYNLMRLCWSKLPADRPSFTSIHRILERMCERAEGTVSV
MEASUREMENT_LABEL: IC50

>>> df
                                   molecule  result
0  N#CCNC(=O)c1ccc(-c2ccnc(Nc3ccc(N4CCOCC4)cc3)n2)cc1 [MOMELOTINIB]  < 1 µM

###

- EXPERIMENTAL_TARGET: Serine/threonine-protein kinase Sgk1 (Homo sapiens, UniProt O00141)
- Sequence (O00141 whole entry): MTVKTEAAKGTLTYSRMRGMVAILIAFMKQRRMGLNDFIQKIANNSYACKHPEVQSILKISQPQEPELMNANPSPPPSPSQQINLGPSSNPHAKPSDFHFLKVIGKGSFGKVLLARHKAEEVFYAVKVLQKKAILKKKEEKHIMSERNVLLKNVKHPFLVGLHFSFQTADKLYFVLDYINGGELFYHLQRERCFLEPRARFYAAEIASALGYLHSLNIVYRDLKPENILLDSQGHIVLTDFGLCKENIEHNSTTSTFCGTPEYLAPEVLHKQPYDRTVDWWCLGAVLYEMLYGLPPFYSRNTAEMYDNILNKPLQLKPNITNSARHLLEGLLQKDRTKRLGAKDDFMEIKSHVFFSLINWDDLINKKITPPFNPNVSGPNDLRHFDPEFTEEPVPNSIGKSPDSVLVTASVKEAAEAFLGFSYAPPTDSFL
- PROTOCOL_SUMMARY: Inhibition of SGK (unknown origin)
MEASUREMENT_LABEL: IC50

>>> df
                                   compound  measurement_label  result
0  N#CCNC(=O)c1ccc(-c2ccnc(Nc3ccc(N4CCOCC4)cc3)n2)cc1 [MOMELOTINIB]               IC50  < 1 µM

###

- EXPERIMENTAL_TARGET: UniProtKB P16234
MEASUREMENT_LABEL: IC50

>>> df
                              record_smiles     result
0  N#CCNC(=O)c1ccc(-c2ccnc(Nc3ccc(N4CCOCC4)cc3)n2)cc1  < 1000 nM

###

- EXPERIMENTAL_TARGET: Insulin receptor (Homo sapiens, UniProt P06213)
- Sequence (P06213 28-758 limits assumed): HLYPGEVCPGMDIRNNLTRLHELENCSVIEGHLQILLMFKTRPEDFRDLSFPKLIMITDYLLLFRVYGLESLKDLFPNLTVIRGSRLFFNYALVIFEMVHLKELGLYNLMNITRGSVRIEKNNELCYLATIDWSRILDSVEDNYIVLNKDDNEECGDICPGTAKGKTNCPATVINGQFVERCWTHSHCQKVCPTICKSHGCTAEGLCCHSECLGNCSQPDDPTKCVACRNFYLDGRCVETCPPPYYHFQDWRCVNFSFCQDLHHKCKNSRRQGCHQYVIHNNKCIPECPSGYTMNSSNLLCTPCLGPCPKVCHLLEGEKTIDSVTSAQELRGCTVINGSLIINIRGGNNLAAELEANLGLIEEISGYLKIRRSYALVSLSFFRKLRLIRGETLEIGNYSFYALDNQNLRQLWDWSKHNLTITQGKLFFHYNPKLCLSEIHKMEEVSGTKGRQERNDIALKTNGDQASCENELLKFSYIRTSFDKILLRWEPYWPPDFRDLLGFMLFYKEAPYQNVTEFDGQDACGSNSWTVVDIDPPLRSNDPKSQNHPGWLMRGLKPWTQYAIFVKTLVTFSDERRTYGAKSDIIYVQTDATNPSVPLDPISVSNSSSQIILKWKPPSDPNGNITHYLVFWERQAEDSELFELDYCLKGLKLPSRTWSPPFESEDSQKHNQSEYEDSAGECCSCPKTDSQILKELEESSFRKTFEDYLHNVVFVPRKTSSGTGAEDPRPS
- Sequence (P06213 763-1382 limits assumed): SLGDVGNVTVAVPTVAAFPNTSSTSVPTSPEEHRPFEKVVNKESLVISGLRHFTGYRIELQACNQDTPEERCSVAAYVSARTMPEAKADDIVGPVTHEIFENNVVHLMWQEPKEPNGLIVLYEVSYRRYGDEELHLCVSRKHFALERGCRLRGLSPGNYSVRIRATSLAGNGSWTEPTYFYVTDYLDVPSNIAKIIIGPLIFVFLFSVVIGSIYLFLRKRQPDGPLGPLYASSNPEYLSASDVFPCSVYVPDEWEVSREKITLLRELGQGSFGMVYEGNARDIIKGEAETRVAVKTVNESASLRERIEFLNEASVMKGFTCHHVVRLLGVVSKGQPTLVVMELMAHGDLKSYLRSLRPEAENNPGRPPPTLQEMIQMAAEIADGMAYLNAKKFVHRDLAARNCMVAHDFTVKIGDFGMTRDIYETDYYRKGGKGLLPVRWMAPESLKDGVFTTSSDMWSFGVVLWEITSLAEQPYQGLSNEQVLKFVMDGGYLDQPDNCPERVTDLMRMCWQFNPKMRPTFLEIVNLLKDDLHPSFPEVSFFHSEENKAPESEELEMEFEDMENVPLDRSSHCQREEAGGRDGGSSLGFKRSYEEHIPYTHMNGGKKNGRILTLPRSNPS
- PROTOCOL_SUMMARY: Inhibition of INSR (unknown origin)
pIC50: −log10 of the molar value.
MEASUREMENT_LABEL: pIC50

In [3]: df
Out[3]:
                              record_smiles                       experimental_target  result
0  N#CCNC(=O)c1ccc(-c2ccnc(Nc3ccc(N4CCOCC4)cc3)n2)cc1  Insulin receptor (Homo sapiens, UniProt P06213)  < 6.00

###

- EXPERIMENTAL_TARGET: Inhibitor of nuclear factor kappa-B kinase subunit beta (Homo sapiens, UniProt O14920)
- Sequence (O14920 whole entry): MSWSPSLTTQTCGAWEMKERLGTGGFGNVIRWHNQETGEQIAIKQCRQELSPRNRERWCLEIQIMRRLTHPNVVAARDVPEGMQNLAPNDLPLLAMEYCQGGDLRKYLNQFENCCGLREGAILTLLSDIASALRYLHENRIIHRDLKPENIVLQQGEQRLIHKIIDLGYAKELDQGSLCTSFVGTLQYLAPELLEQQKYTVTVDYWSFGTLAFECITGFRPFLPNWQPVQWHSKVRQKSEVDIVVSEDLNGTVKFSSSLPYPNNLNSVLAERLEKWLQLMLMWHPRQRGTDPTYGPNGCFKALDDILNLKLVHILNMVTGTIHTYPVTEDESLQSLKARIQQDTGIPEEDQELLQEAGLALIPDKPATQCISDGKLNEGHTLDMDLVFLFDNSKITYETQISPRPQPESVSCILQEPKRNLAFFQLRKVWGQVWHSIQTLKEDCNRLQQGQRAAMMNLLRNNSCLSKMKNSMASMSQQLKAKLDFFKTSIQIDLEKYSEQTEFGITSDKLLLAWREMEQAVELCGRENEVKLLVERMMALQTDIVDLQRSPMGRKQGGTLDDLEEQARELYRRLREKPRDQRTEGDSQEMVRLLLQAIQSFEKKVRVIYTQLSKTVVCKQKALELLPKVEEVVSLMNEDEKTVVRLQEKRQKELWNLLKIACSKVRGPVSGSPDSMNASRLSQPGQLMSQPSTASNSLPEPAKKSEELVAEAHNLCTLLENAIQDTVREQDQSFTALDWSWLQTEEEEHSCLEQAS
- PROTOCOL_SUMMARY: Inhibition of IKBKB (unknown origin)
pIC50: −log10 of the molar value.
MEASUREMENT_LABEL: pIC50

>>> df
                              record_smiles                       experimental_target  result
0  N#CCNC(=O)c1ccc(-c2ccnc(Nc3ccc(N4CCOCC4)cc3)n2)cc1  Inhibitor of nuclear factor kappa-B kinase subunit beta (Homo sapiens, UniProt O14920)  > 6.00

###

- EXPERIMENTAL_TARGET: Dual specificity tyrosine-phosphorylation-regulated kinase 1A (Homo sapiens)
pIC50: −log10 of the molar value.
MEASUREMENT_LABEL: pIC50

                              record_smiles  result
0  N#CCNC(=O)c1ccc(-c2ccnc(Nc3ccc(N4CCOCC4)cc3)n2)cc1  < 6.00

###

- EXPERIMENTAL_TARGET: Mitogen-activated protein kinase kinase kinase 8 (Homo sapiens)
- Sequence (P41279 whole entry): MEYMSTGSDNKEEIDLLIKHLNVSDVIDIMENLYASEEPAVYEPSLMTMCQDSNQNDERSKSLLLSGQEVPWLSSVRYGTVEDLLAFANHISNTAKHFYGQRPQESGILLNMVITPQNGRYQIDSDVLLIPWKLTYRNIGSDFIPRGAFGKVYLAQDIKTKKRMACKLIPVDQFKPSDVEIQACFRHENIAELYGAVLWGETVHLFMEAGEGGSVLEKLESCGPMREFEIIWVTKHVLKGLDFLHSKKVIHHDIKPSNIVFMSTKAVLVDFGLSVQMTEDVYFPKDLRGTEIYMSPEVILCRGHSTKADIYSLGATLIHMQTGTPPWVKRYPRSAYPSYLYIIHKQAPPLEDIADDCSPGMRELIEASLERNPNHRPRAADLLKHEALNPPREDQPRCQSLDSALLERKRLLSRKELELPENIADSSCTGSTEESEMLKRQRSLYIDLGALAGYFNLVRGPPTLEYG
- PROTOCOL_SUMMARY: Inhibition of MAP3K8 (unknown origin)
MEASUREMENT_LABEL: IC50

>>> print(df.to_string())
                                   compound     result
0  N#CCNC(=O)c1ccc(-c2ccnc(Nc3ccc(N4CCOCC4)cc3)n2)cc1 [MOMELOTINIB]  < 1000 nM

###

- EXPERIMENTAL_TARGET: Interleukin-1 receptor-associated kinase 4 (Homo sapiens, UniProt Q9NWZ3)
- Sequence (Q9NWZ3 whole entry): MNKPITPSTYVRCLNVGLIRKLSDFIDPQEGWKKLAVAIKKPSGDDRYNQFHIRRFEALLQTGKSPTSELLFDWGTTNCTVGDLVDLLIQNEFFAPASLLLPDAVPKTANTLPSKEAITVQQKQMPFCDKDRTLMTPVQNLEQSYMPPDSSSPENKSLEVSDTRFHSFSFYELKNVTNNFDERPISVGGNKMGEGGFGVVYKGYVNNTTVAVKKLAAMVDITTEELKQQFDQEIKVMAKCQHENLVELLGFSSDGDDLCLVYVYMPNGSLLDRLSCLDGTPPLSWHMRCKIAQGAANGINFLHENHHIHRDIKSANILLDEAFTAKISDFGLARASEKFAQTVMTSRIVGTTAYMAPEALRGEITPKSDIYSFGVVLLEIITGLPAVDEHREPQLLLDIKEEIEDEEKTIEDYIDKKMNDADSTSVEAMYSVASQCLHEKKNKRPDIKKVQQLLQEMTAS
MEASUREMENT_LABEL: IC50

                              record_smiles     result
0  N#CCNC(=O)c1ccc(-c2ccnc(Nc3ccc(N4CCOCC4)cc3)n2)cc1  > 1000 nM

###

- EXPERIMENTAL_TARGET: Serine/threonine-protein kinase BRSK1 (Homo sapiens, UniProt Q8TDC3)
- Sequence (Q8TDC3 whole entry): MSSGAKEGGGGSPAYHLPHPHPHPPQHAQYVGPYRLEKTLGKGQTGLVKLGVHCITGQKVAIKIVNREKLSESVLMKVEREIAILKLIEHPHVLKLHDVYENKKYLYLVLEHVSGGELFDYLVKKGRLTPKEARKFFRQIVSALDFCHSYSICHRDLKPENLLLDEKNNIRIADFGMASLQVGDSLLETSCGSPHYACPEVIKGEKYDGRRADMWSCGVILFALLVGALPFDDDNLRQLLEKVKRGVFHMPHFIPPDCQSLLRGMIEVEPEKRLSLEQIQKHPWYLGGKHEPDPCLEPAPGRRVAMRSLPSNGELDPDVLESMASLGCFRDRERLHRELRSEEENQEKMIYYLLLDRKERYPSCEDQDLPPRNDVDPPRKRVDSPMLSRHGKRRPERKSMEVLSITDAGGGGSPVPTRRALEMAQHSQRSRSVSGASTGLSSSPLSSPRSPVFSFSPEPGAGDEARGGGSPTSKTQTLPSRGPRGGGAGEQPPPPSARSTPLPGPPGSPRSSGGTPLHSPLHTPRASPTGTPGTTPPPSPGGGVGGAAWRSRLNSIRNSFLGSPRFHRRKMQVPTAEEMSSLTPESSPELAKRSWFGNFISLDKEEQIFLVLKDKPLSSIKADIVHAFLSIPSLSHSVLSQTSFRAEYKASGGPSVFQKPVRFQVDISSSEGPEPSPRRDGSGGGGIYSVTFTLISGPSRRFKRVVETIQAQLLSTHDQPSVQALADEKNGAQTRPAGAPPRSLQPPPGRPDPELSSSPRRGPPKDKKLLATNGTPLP
- PROTOCOL_SUMMARY: Inhibition of BRSK1 (unknown origin)
pIC50: −log10 of the molar value.
MEASUREMENT_LABEL: pIC50

>>> df
                                   molecule                       experimental_target  measurement_label  result
0  N#CCNC(=O)c1ccc(-c2ccnc(Nc3ccc(N4CCOCC4)cc3)n2)cc1 [MOMELOTINIB]  Serine/threonine-protein kinase BRSK1 (Homo sapiens, UniProt Q8TDC3)              pIC50  > 6.00

###

- EXPERIMENTAL_TARGET: AMP-activated protein kinase (AMPK) alpha-1/beta-1/gamma-1 (Homo sapiens, UniProt P54619+Q13131+Q9Y478)
- Sequence (P54619 whole entry): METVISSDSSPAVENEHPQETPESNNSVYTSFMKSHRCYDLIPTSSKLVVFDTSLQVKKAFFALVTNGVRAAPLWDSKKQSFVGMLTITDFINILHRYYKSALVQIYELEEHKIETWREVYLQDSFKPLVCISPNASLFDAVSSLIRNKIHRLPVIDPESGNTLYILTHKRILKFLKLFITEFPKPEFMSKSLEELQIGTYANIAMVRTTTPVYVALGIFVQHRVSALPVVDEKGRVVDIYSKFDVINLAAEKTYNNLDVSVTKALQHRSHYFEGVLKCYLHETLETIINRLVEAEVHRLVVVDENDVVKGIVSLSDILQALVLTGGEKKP
- Sequence (Q9Y478 whole entry): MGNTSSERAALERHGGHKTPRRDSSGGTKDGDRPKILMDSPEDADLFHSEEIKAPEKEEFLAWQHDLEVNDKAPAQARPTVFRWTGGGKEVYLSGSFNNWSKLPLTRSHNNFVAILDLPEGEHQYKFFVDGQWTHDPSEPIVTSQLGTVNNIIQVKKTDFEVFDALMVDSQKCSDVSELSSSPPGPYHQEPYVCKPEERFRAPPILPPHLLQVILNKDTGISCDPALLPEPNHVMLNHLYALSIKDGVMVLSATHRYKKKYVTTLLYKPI
- Sequence (Q13131 whole entry): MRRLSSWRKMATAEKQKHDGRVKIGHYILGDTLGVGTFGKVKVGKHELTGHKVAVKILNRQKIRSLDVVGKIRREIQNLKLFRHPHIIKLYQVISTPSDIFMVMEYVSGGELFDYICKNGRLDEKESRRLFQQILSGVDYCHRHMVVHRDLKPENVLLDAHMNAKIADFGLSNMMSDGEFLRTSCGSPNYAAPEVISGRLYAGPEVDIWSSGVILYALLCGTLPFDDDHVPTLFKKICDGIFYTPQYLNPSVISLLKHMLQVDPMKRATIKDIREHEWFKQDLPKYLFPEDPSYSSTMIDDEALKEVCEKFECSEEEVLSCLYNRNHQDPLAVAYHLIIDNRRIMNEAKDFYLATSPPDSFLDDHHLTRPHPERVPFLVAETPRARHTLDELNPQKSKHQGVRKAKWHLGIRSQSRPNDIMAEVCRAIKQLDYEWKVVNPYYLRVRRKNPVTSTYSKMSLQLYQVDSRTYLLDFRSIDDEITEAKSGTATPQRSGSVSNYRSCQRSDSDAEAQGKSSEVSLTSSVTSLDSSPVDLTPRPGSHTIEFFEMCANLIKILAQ
- PROTOCOL_SUMMARY: Inhibition of AMPK alpha1/beta1/gamma1 (unknown origin)
pIC50: −log10 of the molar value.
MEASUREMENT_LABEL: pIC50

In [3]: df
Out[3]:
                              record_smiles  result
0  N#CCNC(=O)c1ccc(-c2ccnc(Nc3ccc(N4CCOCC4)cc3)n2)cc1  > 6.00

###

- EXPERIMENTAL_TARGET: Tyrosine-protein kinase receptor TYRO3 (Homo sapiens)
- Sequence (Q06418 whole entry): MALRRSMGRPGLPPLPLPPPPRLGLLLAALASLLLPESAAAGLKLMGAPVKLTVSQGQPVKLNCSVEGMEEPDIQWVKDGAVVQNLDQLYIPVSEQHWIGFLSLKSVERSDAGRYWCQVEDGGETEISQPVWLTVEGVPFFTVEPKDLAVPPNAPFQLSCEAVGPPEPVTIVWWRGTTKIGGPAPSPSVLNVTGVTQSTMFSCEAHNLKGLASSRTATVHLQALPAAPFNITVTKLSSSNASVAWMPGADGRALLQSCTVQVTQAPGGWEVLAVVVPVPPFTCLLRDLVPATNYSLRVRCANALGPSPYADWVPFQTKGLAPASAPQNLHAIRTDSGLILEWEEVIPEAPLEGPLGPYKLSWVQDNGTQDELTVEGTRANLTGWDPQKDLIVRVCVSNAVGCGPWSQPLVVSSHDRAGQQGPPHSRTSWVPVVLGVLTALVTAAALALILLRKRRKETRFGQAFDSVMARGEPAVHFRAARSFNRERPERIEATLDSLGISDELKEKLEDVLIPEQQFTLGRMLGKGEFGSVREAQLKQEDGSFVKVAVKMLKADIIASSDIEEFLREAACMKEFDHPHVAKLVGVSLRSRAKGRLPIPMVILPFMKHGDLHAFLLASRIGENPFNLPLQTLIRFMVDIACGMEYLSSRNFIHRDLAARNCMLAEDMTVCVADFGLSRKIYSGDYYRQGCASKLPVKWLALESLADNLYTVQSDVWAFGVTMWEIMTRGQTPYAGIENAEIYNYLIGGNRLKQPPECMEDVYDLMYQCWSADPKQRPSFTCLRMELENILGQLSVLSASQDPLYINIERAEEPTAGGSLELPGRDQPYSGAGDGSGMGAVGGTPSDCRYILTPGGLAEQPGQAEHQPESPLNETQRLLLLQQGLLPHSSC
MEASUREMENT_LABEL: IC50

>>> print(df.to_string())
                                   compound  result
0  N#CCNC(=O)c1ccc(-c2ccnc(Nc3ccc(N4CCOCC4)cc3)n2)cc1 [MOMELOTINIB]  < 1 µM
